Taken from paper PMC7714403.

Biological target: FGFR1 (Homo sapiens)
Sequence (P11362 22-822): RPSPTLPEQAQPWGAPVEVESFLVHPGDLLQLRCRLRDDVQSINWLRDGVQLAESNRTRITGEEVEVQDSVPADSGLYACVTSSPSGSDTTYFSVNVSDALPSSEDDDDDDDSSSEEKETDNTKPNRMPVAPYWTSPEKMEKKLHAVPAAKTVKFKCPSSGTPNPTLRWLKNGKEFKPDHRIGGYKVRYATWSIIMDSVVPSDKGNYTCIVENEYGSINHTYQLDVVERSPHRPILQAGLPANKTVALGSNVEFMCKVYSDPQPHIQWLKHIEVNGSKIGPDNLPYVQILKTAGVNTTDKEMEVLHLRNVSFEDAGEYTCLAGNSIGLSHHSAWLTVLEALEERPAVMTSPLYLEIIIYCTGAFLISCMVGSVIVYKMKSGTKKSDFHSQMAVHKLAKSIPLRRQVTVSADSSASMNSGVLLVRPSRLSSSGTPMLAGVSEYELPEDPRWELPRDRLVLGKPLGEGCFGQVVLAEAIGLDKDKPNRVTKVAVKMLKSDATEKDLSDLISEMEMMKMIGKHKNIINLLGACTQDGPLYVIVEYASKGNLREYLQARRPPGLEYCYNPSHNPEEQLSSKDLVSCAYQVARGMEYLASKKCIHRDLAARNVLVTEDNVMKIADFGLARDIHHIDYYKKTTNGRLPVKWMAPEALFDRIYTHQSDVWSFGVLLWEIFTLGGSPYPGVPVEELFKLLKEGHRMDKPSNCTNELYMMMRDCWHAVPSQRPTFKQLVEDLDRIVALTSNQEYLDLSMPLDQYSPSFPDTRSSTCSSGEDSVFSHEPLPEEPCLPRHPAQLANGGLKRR

>  <compound>
CN1CCN(Cc2ccc(Nc3ncc(Cl)c(Nc4ccccc4S(=O)(=O)N(C)C)n3)cc2)CC1 [TP-0903]

>  <target>
FGFR1 (Homo sapiens)

>  <units.of.measure>
nM

>  <Kd>
21

$$$$

====

Biological target: UniProtKB P23458
Sequence (P23458 whole entry): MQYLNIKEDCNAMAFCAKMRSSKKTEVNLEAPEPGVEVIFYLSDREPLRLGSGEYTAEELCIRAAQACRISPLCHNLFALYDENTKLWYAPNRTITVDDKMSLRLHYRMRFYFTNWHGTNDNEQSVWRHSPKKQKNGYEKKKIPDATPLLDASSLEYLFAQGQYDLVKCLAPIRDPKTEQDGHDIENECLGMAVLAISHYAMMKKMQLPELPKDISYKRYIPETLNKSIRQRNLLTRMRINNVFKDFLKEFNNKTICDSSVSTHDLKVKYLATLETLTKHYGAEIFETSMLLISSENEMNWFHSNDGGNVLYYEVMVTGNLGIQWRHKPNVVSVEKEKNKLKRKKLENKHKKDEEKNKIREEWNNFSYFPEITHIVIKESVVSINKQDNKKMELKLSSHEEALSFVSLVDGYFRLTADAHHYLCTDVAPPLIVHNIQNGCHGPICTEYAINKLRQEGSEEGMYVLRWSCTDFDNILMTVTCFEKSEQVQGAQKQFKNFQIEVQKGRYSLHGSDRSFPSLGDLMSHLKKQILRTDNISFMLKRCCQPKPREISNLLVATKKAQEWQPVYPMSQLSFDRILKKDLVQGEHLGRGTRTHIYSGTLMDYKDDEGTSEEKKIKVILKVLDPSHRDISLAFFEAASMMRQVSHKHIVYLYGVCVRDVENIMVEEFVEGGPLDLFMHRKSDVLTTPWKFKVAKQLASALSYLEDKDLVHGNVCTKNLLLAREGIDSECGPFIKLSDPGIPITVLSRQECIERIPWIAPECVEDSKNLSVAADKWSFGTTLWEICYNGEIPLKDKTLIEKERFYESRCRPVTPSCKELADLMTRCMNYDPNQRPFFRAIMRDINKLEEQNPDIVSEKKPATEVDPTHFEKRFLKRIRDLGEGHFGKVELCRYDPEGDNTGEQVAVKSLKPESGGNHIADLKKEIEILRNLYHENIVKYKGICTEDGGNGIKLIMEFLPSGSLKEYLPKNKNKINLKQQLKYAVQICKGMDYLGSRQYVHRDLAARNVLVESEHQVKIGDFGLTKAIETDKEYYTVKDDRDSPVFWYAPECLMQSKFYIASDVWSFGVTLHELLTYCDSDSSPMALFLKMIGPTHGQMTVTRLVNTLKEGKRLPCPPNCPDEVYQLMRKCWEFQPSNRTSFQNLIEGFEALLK

>  <given.smiles>
CN1CCN(Cc2ccc(Nc3ncc(Cl)c(Nc4ccccc4S(=O)(=O)N(C)C)n3)cc2)CC1

>  <target>
UniProtKB P23458

>  <Kd, nM>
23

$$$$

====

Biological target: CSF1R (Homo sapiens)
Sequence (P07333 20-972): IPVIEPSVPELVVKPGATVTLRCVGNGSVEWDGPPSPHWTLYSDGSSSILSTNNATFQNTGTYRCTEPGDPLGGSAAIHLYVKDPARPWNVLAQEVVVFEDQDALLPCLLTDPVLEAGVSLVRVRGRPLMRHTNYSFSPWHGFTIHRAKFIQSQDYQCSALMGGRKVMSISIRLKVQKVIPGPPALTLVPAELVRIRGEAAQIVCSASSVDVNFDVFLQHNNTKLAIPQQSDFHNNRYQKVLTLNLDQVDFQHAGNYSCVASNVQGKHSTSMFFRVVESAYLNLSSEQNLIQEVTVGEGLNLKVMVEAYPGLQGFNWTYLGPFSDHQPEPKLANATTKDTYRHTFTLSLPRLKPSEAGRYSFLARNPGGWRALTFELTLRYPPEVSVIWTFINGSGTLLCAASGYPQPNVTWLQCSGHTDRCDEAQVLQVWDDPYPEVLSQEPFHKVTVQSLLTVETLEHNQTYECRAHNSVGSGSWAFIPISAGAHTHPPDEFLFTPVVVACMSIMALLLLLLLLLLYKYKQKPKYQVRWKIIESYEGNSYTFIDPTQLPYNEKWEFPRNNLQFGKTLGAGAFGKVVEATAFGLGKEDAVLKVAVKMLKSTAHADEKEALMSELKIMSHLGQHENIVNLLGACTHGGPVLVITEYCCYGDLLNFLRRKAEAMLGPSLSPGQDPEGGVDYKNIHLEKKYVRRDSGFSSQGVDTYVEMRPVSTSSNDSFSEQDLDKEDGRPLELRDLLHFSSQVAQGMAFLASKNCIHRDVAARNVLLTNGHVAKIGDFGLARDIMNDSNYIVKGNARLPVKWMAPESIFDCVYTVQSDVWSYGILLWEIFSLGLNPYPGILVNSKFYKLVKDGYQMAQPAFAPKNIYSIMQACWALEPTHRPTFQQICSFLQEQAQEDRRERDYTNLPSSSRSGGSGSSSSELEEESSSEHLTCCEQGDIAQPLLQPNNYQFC
pKd: −log10 of the molar value.
measurement.type: pKd

>  <given.smiles>
CN1CCN(Cc2ccc(Nc3ncc(Cl)c(Nc4ccccc4S(=O)(=O)N(C)C)n3)cc2)CC1

>  <readout.number>
7.80

$$$$
